biological target: human GABAA α2β2γ1 receptor (Homo sapiens (Human), UniProt P47869+Q8N1C3); assay: Radioligand binding assay for γ1-containing GABAA subtypes, [3H]RO7239181 competition (α2β2γ1); conditions: Ki h-GABAA α2β2γ1, [3H]RO7239181 competition binding, human GABAA α2β2γ1
# key: entry, value: Ki
Reply numerically in nM, unit not repeated.

C[C@@H]1N=C(c2c(F)cccc2F)c2c(ccc(C(F)(F)F)c2Cl)-n2nc(C(=O)N3CC(O)C3)nc21 [Example 58]; 7
COC1CN(C(=O)c2nc3n(n2)-c2ccc(C(F)(F)F)c(Cl)c2C(c2c(F)cccc2F)=N[C@H]3C)C1 [Example 23]; 11.8
C[C@@H]1N=C(c2c(F)cccc2F)c2c(ccc(C(F)(F)F)c2Cl)-n2nc(NC(=O)N3CCS(=O)(=O)CC3)nc21 [Example 131]; 13.8
CO[C@@H]1CCN(C(=O)c2nc3n(n2)-c2ccc(Cl)c(Cl)c2C(c2c(F)cccc2F)=N[C@H]3C)C1 [Example 46]; 5.9
COC1CN(C(=O)Nc2nc3n(n2)-c2ccc(Cl)c(Cl)c2C(c2c(F)cccc2F)=N[C@H]3C)C1 [Example 60]; 12.3
C[C@@H]1N=C(c2c(F)cccc2F)c2c(ccc(C(F)(F)F)c2Cl)-n2nc(C(=O)NN(C)C)nc21 [Example 117]; 20
C[C@@H]1N=C(c2c(F)cccc2F)c2c(ccc(Cl)c2Cl)-n2nc(C(=O)NCCO)nc21 [Example 54]; 4.4

The compound listed as COC1CN(C(=O)c2nc3n(n2)-c2ccc(Cl)c(Cl)c2C(c2ncccc2F)=N[C@H]3C)C1 [Example 38] shows Ki equal to 28.2
